Origin of values: patent US7776312B2

- assayNotes: Intranasal delivery of DFO (59Fe-labeled ferrioxamine), tissue concentrations by scintillation counting
- Assay type: in vivo, rats
- conditionSet: rat, olfactory epithelium, 6 mg, intranasal ~6 mg, 25 min. after onset of delivery, read-out: DFO concentration, Olfactory Epithelium
readoutName: concentration at 25 min (µM)
Enter your answer as a number in µM; do not include the unit.

### Prompt Please give the measured concentration at 25 min for this compound: "CC(=O)N(O)CCCCCNC(=O)CCC(=O)N(O)CCCCCNC(=O)CCC(=O)N(O)CCCCCN"
### Response 12000

* * *

- assayNotes: Intranasal delivery of DFO (59Fe-labeled ferrioxamine), tissue concentrations by scintillation counting
- Format: in vivo, rats
- conditionSet: rat, thalamus, 6 mg, intranasal ~6 mg, 25 min. after onset of delivery, read-out: DFO concentration, Thalamus
- Description: Following delivery, tissues were removed for analysis.
readoutName: concentration at 25 min (nM)
Enter your answer as a number in nM; do not include the unit.

### Prompt Please give the measured concentration at 25 min for this compound: "CC(=O)N(O)CCCCCNC(=O)CCC(=O)N(O)CCCCCNC(=O)CCC(=O)N(O)CCCCCN"
### Response 1100
